assay: Open label pharmacokinetic study GW01-0804: serum pharmacokinetics; settings: both, human, in vivo, AUC0-t, Mean, serum; Day 1
MEASURED PROPERTY: AUC(0-t)

input: Name the reported AUC(0-t) value associated with the molecule CC(C)Cn1cnc2c(N)nc3ccccc3c21 [Imiquimod (R-837)]
output: 3.12 ng·h/mL

====

assay: Single dose (oral, intraperitoneal, subcutaneous, intravenous) and repeat dose toxicity studies; settings: mouse, in vivo, po, LD50, Mouse
MEASURED PROPERTY: LD50 (mg/kg)
# output: bare number, implied unit mg/kg

input: Would you kindly share the measured LD50 for "CC(C)Cn1cnc2c(N)nc3ccccc3c21" ?
output: 403

====

assay: Open label pharmacokinetic study GW01-0804: serum pharmacokinetics; details: both, human, in vivo
MEASURED PROPERTY: AUC(0-inf) (ng·h/mL)
Kindly answer with a numeric value in ng·h/mL, unit omitted.

input: Which value of AUC(0-inf) has been reported for CC(C)Cn1cnc2c(N)nc3ccccc3c21 [Imiquimod (R-837)] in the records?
output: 5.35

====

assay: Open label pharmacokinetic study GW01-0804: serum pharmacokinetics; conditions: both, human, in vivo, Geometric LS Mean, Reference (trough serum concentration), Secondary steady-state analysis (BLQ replaced with LLOQ/2); Day 21 vs. Day 14; N 15
MEASURED PROPERTY: concentration at 14 day (trough, evening prior to application) (ng/mL)
Please respond with the number in ng/mL and leave the unit unwritten.

input: Record request: concentration at 14 day (trough, evening prior to application) value, item CC(C)Cn1cnc2c(N)nc3ccccc3c21 [imiquimod]
output: 0.115

====

assay: Single dose (oral, intraperitoneal, subcutaneous, intravenous) and repeat dose toxicity studies; conditions: mouse, in vivo, ip, LD50, Mouse; Intraperitoneal
MEASURED PROPERTY: LD50 (mg/kg)
Respond with the bare value in mg/kg.

input: Which LD50 reading was recorded for the compound "CC(C)Cn1cnc2c(N)nc3ccccc3c21" ?
output: 879

====

assay: Single dose (oral, intraperitoneal, subcutaneous, intravenous) and repeat dose toxicity studies; conditions: rat, in vivo, sc, LD50, Rat; Subcutaneous
MEASURED PROPERTY: LD50

input: Please look up its LD50: "CC(C)Cn1cnc2c(N)nc3ccccc3c21"
output: ~20 mg/kg
